The reported measurements were obtained from PubChem BioAssay AID1159580.

- Assay info: chemical genetic growth profiling, strain panel (AID 1159580);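 note: tested at 20 µM; growth read once vehicle control cultures reached saturation at 30 °C; 1 = growth at the plate median or of vehicle wells; lower values mean less growth of the strain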
- Run conditions: S. cerevisiae deletion strains, growth OD, locus YDL134C, strain PPH21
The campaign covered roughly 5,500 compounds. About 2,000 (36%) were called active. Not shown: some 18% with an inconclusive outcome. Cut-off read from the data, not from the text of the source: active = normalized growth mostly below about 0.91 (no sharp cut-off); inconclusive = no clear call, values can overlap the other calls; inactive = mostly above about 0.92. The list shows a part of the results.
Possible outcomes: class 1 = active, class 0 = inactive

Compound	Answer label
CON	class 0
CNC(C)(C)Cc1ccccc1	class 0
C=C(C)C1Cc2c(ccc3c(=O)c4c(oc23)COc2cc(OC)c(OC)cc2-4)O1 (stereo not given)	class 0
CC(=O)Oc1c(C)c(C)c2c(c1C)CCC(C)(CCCC(C)CCCC(C)CCCC(C)C)O2 (stereo not given)	class 0
O=C1CSC(c2cccnc2)N1c1ccc(C2CCCCC2)cc1 (stereo not given)	class 0
Nc1ccccc1C(=O)NCCc1ccc(Cl)cc1	class 0
O=C1C=C(O)c2ccccc2C1=O	class 0
C=C(C)C1Cc2c(ccc(C(=O)O)c2O)O1 (stereo not given)	class 0
CCCC(=O)Nc1ccc(OCC(O)CNC(C)C)c(C(C)=O)c1 (stereo not given)	class 0
O=[N+]([O-])c1cc(C(F)(F)F)cc([N+](=O)[O-])c1Oc1ccc(Cl)c(Cl)c1	class 1
CNC(C)[C@@H]1CC[C@@H](N)[C@@H](OC2[C@@H](N)C[C@@H](N)[C@H](OC3OC[C@](C)(O)[C@H](NC)[C@H]3O)[C@H]2O)O1 (stereo not given in full)	class 0
Nc1c(Cl)cc(C(=O)Nc2cc(Cl)cc(Cl)c2)cc1Cl	class 0
CC1CN=C(NC2CCCCC2)S1 (stereo not given)	class 0
O=[N+]([O-])c1cc(C(F)(F)F)ccc1Sc1ccc(Cl)cc1	class 0
N#CCC(=O)N(Cc1ccccc1F)C(=O)NC1CCCCC1	class 0
Cc1ccc(S(=O)(=O)N2CCN(CCOc3ccccc3)CC2)cc1	class 0
Clc1cc(Cl)cc(Br)c1	class 0
N/C(=N/O)c1cnccc1C(F)(F)F	class 0
O=C(Nc1cc(-c2ccccc2)[nH]n1)c1ccccc1	class 0
C[N+]12CCC(CC1)C(OC(=O)C(O)(c1ccccc1)c1ccccc1)C2 (stereo not given)	class 0
Cc1ccc(O)c(C(CCN(C(C)C)C(C)C)c2ccccc2)c1 (stereo not given)	class 0
COc1ccc(/C=C/c2cc(O)cc(O[C@@H]3O[C@H](CO)[C@@H](O)[C@H](O)[C@H]3O)c2)cc1	class 0
CC(=O)OC1CCC23CC1(C)CCC2C(C)(C)CC3OC(C)=O (stereo not given)	class 0
O=C(O)c1cc(=O)c2ccccc2[nH]1	class 0
CC(C)[C@@H]1CC[C@@H](C)CC1=O	class 0
